- Measurement Protocol: NCI Yeast Anticancer Drug Screen. Data for the mec2-1 strain (AID 157)
- Experimental Conditions: S. cerevisiae mec2-1 strain, at 50.0 µM
Compounds without any hit were thinned out: in the full panel of roughly 79,000, 15% have a hit. Calls of active or inactive are those of the source. No stated cut-off is given here; in the data, active means growth inhibition above about 70%; inactive means the rest.
// one of 1.0 (active), 0.0 (inactive), no free text

Worked cases, answers included:
*Q* Entry `CO[C@@H]1C=C[C@@]23c4cc5c(cc4CN(C[C@@H]2O)[C@H]3C1)OCO5` : call = ?
*A* 0.0

*Q* Give the logged outcome of this assay for the following compound: `O=C1C=CC(=O)C1`
*A* 0.0

*Q* Recorded test outcome, item COc1ccc(N=Nc2c(C)c(C#N)c(=S)n(C3OC(CO)C(O)C(O)C3O)c2C)cc1 (configuration not stated)
*A* 0.0

*Q* How did this test come out for CC1CCc2ccccc2N1C(=O)c1cccc([N+](=O)[O-])c1C(=O)O (configuration not stated) ?
*A* 0.0

*Q* What is the recorded call for this compound in the test? `CSC(SC)[P+](c1ccccc1)(c1ccccc1)c1ccccc1`
*A* 1.0

For the next question, use this compound.
*Q* Tell me the assay call for O=C(O)C1CC(Cl)C(O)C(Cl)C1 (configuration not stated) please.
*A* 0.0

* * *

- Measurement Protocol: NCI Yeast Anticancer Drug Screen. Data for the rad50 strain (AID 155);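 further: 0% = growth of vehicle-only cultures of the same strain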
- Experimental Conditions: S. cerevisiae rad50 strain growth inhibition; at 50.0 µM; stronger effect = higher value
This is part of a sample that, as a whole, favours compounds with a hit. Of some 79,000 tested, about 15% had one in any assay.
Consider the following molecules and their measured growth inhibition readings.
Give the value in % but do not write % after it.

Previously resolved entries follow.
*Q* What measured growth inhibition goes with COC(=O)CC1(C(=O)OC)OC(=O)c2ccccc2N1C (stereo unspecified) ?
*A* 8.2

*Q* Which growth inhibition is listed for Cc1cccc(C)c1NC(=O)C(=O)C(C(=O)c1ccccc1-c1ccccc1)C1OC(=O)c2ccccc21 (stereo unspecified) ?
*A* 26.6

*Q* Please look up its growth inhibition: `Cc1ccc(-c2ccc(C)cc2)cc1`
*A* -31.2

Further cases:
*Q* Entry `FC(F)(F)c1cccc(C=NC23CC4CC(CC(C4)C2)C3)c1` has what growth inhibition?
*A* -16.4

*Q* Fill in the blank: the reported growth inhibition of `COc1cc(C(=O)O)ccc1OC(C)=O` is ____.
*A* 7.4

*Q* For the molecule shown here, `CCOc1ccc(/C(O)=C/c2nc3ccccc3nc2/C=C(\O)c2ccc(OCC)cc2)cc1` , give the reported growth inhibition.
*A* -2.1

*Q* Look up growth inhibition: CC1C2CC(C(S(=O)(=O)O)C2=O)C1(C)C (stereo unspecified)
*A* 9.25

*Q* Entry under review: COc1cccc(CN2C(=O)NC(C)(C)C2O)c1 (stereo unspecified) . Reported growth inhibition?
*A* -12.2

* * *

- Measurement Protocol: NCI Yeast Anticancer Drug Screen. Data for the mec2-1 strain (AID 157)
- Experimental Conditions: S. cerevisiae mec2-1 strain, at 50.0 µM, stronger effect = higher value
This is part of a sample that, as a whole, favours compounds with a hit. Of some 79,000 tested, about 15% had one in any assay.
A collection of compounds and their measured growth inhibition
The reply should contain only the number, in %.

Example entries begin here.
*Q* I'd like to know its growth inhibition. The compound in question is `Oc1cc(O)c2c(-c3c(O)c(-c4ccc(O)c(O)c4)[o+]c4cc(O)cc(O)c34)c(O)c(-c3ccc(O)c(O)c3)[o+]c2c1`
*A* 4.85

*Q* Recorded growth inhibition of `C(=N\c1nccs1)/c1ccc(/C=N/c2nccs2)cc1` , please.
*A* -5.2

*Q* // returns reported growth inhibition for input `O=c1cc(-c2ccc(F)cc2)oc2ccccc12`
*A* -7.45

*Q* What value of growth inhibition has been reported for the following compound? COc1ccc(/C(=N\NC(=O)C(=O)NN)C(c2ccc(OC)cc2)C2(O)C(=O)Nc3ccccc32)cc1 (stereo not given)
*A* -20.2

*Q* Suppose we examine the compound `Clc1ccc(-c2nnc(C34CC5CC(CC(C5)C3)C4)o2)cc1` ; what growth inhibition value has been reported?
*A* -8.65

---
*Q* Item `O=C1c2c(-c3ccccc3)ccc(-c3ccccc3)c2C(=O)c2c(-c3ccccc3)ccc(-c3ccccc3)c21` has what recorded growth inhibition?
*A* -3.4

*Q* May I ask what growth inhibition has been recorded for `CN(C)CCCSc1n[nH]c(=O)[nH]c1=O` ?
*A* 2.5

*Q* Fill in: growth inhibition of `CN(C)Cc1cc(N=Nc2ccc(Cl)cc2)ccc1O` is ___
*A* 7.3

*Q* What value of growth inhibition has been reported for the following compound? `Nc1ncnc(N)c1NC(=O)c1cccc(-c2ccccc2)c1`
*A* 41.1

*Q* Which growth inhibition reading was recorded for the compound COC(=O)CC1C2(C)C3=C(C)C(c4ccoc4)CC3OC2C2OC(=O)C3(C)C=CC(=O)C1(C)C23 (stereo not given) ?
*A* 84.2

*Q* State the recorded growth inhibition for this entry: `CCOCCOCCOc1c(Cl)cc(Cl)cc1Cl`
*A* 1.9

*Q* Any idea what growth inhibition was measured for O=C1c2cn[nH]c2N=C(Nc2ccccc2)C1N=Cc1ccc([N+](=O)[O-])cc1 (stereo not given) ?
*A* -45.2

*Q* Name the recorded growth inhibition for CN(C)/C=N\c1ncnc2c1ccn2C1OC(CO)C(O)C1O (stereo not given) .
*A* -5.4

*Q* Quick one: growth inhibition for `c1ccc2c3c([nH]c2c1)C1(CCCCC1)c1c([nH]c2ccccc12)C31CCCCC1` ?
*A* 2.2

*Q* Which growth inhibition value belongs to `CN(N)C(=O)NCCCl` ?
*A* -4.6

*Q* Form field: reported growth inhibition of `COc1ccc2nc3cc([N+](=O)[O-])ccc3c(Nc3ccc(S(=O)(=O)NC(C)=O)cc3)c2c1`
*A* 36.4

*Q* Query: growth inhibition; subject: `Cc1cc(Cl)ccc1-n1nc(C)c2c(N)nc(N)nc21`
*A* 6.5

*Q* Query: growth inhibition; subject: `Cc1nc(N)[nH]c(=O)c1Cc1ccc(Cl)cc1Cl`
*A* -1.15

*Q* Consider the compound shown here: CC(=O)OC1CN(c2ccc(Br)cc2)CC(OC(C)=O)CN(c2ccc(Br)cc2)C1 (stereo not given) What is its recorded growth inhibition?
*A* 9.7

* * *

Entries and their measured growth inhibition follow.
- Measurement Protocol: NCI Yeast Anticancer Drug Screen. Data for the cln2 rad14 strain (AID 165);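 further: 0% = growth equal to vehicle treated cultures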
- Experimental Conditions: S. cerevisiae cln2 rad14 strain, at 50.0 µM, stronger effect = higher value
Compounds without any hit were thinned out: in the full panel of roughly 79,000, 15% have a hit.
Write the answer as a number in %, unit excluded.

Illustrative cases are given below, each with its answer.
*Q* # lookup: growth inhibition of `CC(C)=CCC/C(C)=C/c1cc(C(=O)O)c2c(ccc3ccccc32)n1`
*A* 11.3

*Q* Entry under review: CC(C)COC(=O)N1N=NC2C3CC(=O)C(O3)C21 (stereo unspecified) . Reported growth inhibition?
*A* 11.6

*Q* Look up growth inhibition for this compound: `N#CNc1ccccc1`
*A* -8.8

*Q* Which growth inhibition reading was recorded for the compound `Cc1cc2nc3c(=O)[nH]c(=O)nc-3n(CCOC(=O)CCC(=O)O)c2cc1C` ?
*A* 0.2

Continuing:
*Q* Requested field: growth inhibition. Item: `O=C1c2ccc3ccccc3c2C(=O)c2ccc3ccccc3c21`
*A* -30.2

*Q* For the compound `CC(=O)c1ccncc1` , what growth inhibition is on record?
*A* -27.4

*Q* Quick one: growth inhibition for `O=C(O)C1=CC(c2ccccc2O)=NCCN1` ?
*A* -34.6

*Q* Field request: growth inhibition | item: `Nc1nc2[nH]c(=O)cnc2c(=O)[nH]1`
*A* -0.1

*Q* // query growth inhibition value for entry CC1(C)CC(=O)C(CC(C(=O)C(=O)Nc2cc(C(F)(F)F)ccc2Cl)C(=O)c2ccco2)C(=O)C1 (stereo unspecified)
*A* -22.4

*Q* If you can, please state the reported growth inhibition value of `Cc1cc(C)c2ccccc2n1` .
*A* -3.4

*Q* Fill blank: measured growth inhibition of the compound `CN(C)S(=O)(=O)N1CCCc2ccccc21` is ____.
*A* 7.1

* * *

- Measurement Protocol: NCI Yeast Anticancer Drug Screen. Data for the sgs1 mgt1 strain (AID 161);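 further: 0% = growth of cultures given vehicle only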
- Experimental Conditions: S. cerevisiae sgs1 mgt1 strain, at 50.0 µM, stronger effect = higher value
About 79,000 compounds went through this panel and 15% of them were active in at least one assay; those are over-represented in the sample as a whole.
Listing of recorded growth inhibition by entry.
Write the answer as a number in %, unit excluded.

*Q* GET /values?readout=growth inhibition&item= `COc1cc([N+](=O)[O-])c(S(=O)(=O)O)cc1-n1nc(-c2ccccc2)n[n+]1-c1cc(S(=O)(=O)[O-])c([N+](=O)[O-])cc1OC`
*A* -13.3

*Q* Quick one: growth inhibition for `NNC(=O)c1csnn1` ?
*A* -24.5

*Q* Return reported growth inhibition; argument: N#Cc1cc2c(n(C3OC(CO)C(O)C(O)C3O)c1=S)CCCCCC2 (stereo unspecified)
*A* 17.8

*Q* Report growth inhibition for `N#C/C(=C\c1cc(Br)c(O)c(Br)c1)c1ccccn1` please.
*A* 24.4

*Q* growth inhibition lookup needed for `c1cc(-c2cc(-c3cc(-c4ccncc4)n[nH]3)[nH]n2)ccn1` , thanks.
*A* 8.45

Continuing:
*Q* Which growth inhibition is listed for `Cc1cc(=O)c2ccccc2o1` ?
*A* -1.3

*Q* Recorded growth inhibition for `C=CCc1cccc(C2N(Cc3ccc(OC)cc3OC)CCCN2Cc2ccc(OC)cc2OC)c1O` , please?
*A* -0.75

*Q* Data request, read-out growth inhibition, for `O=C(CCCCCCCCC(=O)OCc1ccccc1)OCc1ccccc1`
*A* 3.85

*Q* Form field: reported growth inhibition of CC(=O)Nc1ccc(NC(=O)C2CC3C=CC2C3)cc1 (stereo unspecified)
*A* -33

*Q* Look up growth inhibition for this compound: C[C@H]1C(=O)CCC2[C@]3(C)CCC4(CO)[C@@H]5CC(C)(C)C(=O)C[C@]5(C)CC[C@]4(C)C3CC[C@@]21C (stereo partly specified)
*A* -28.1

*Q* Using the record for `CCn1cc(C(=O)CCP(=O)(OC)OC)c2ccccc21` , report its growth inhibition.
*A* 3.6
